# measured_target: T1, ZAP70 tSH2-GFP (tandem SH2 domains of human ZAP70, amino acids 1-264, with C-terminal GFP) (human, UniProt P43403 1-264)
# T1 chain: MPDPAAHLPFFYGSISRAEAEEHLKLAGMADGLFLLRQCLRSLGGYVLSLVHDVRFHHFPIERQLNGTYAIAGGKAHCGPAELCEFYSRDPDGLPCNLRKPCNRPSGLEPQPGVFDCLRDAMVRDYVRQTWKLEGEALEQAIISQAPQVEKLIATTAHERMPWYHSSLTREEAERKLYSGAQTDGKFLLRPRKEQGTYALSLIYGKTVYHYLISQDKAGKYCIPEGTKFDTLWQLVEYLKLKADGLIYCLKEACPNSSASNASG
# test_details: SPR
Square brackets hold non-standard residues; d marks the D form. Ends that are not written are not given here. * marks the point of attachment. Biotin = O=C1N[C@H]2[C@H](CS[C@H]2CCCCC(=O)*)N1; pY = N[C@@H](Cc1ccc(OP(=O)(O)O)cc1)C(=O)O
property_label: Kd (µM)
Enter your answer as a number in µM; do not include the unit.

binder | measurement
Biotin-GKGHDLL[pY]QGLSTATKDTYDALHMQ [ITAM3 N (N-monophosphorylated CD3ζ ITAM3 peptide)] | 20.7

In: Dear colleague, I am looking for the recorded Kd of the following binder: Biotin-GKGHDLLYQGLSTATKDT[pY]DALHMQ [ITAM3 C (C-monophosphorylated CD3ζ ITAM3 peptide)]
Out: 7.52

Each recorded value in this set is attributed to paper doi:10.1101/2020.02.12.945170.
